# Assay Comment: small-molecule microarray binders of probe aLefty2, primary screen, biochemical, biotinylated probe, 635/667 nm fluorescence (AID 1094);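 also: score merges spot fluorescence near 667 nm with spot signal-to-noise ratio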
# Cond: higher = more signal
Think of 0.09 as a floor: if composite z-score stands on it or above, it is yes (1); beneath it, no (0).

Some solved cases for reference:
Molecule: C=C[C@@H](COC(C)=O)N(Cc1ccc([N+](=O)[O-])cc1)S(=O)(=O)c1ccc(Br)cc1
Category Label: yes (1)
--
Molecule: N#Cc1ccc(NN2C(C(O)c3cccs3)C=CC3C(=O)N(c4ccccc4)C(=O)C32)cc1 (stereo not given)
Category Label: no (0)

# bool: composite z-score of CCOC(=O)C1=C[C@@H](CC)N(S(=O)(=O)c2ccc(C)cc2)[C@H]1c1ccccc1 >= 0.09 yes (1)

Next molecule up: COc1c(C)cc(-c2cc3c(c(-c4ccc(Oc5ccccc5)cc4)n2)[Si](C(C)C)(C(C)C)OC3)cc1C no (0)

* * *

Attribute: composite z-score
# Target Desc: Alpha-bungarotoxin (Bungarus multicinctus)
# Assay Comment: alpha-bungarotoxin binders on microarray, profiling panel, artefact control for SMM control protein annotation, biochemical, small-molecule microarray, Alexa647 label, 635/667 nm fluorescence (AID 1117)
# Cond: alpha-BTX-A647 binding fluorescence, higher = more signal

Sample answers from the record:
Compound: CCCCC=C[C@@H](NC(=O)c1ccc(C(=O)OC)cc1)c1ccccc1
Result: 0.926

Compound: O=C1C2C=CC(C(O)c3ccc(B(O)O)cc3)N(Nc3ccccc3)C2C(=O)N1c1ccccc1 (stereo not drawn)
Result: 0.402

Now consider the entry below.
Record request: composite z-score value, item CCCNC(=O)[C@@H]1c2ccccc2C(=O)N(Cc2ccccc2)[C@H]1c1ccc(CO)cc1 0.918

* * *

# Target Desc: Follistatin (Homo sapiens) (UniProt P19883)
# Sequence (P19883 whole entry, looked up): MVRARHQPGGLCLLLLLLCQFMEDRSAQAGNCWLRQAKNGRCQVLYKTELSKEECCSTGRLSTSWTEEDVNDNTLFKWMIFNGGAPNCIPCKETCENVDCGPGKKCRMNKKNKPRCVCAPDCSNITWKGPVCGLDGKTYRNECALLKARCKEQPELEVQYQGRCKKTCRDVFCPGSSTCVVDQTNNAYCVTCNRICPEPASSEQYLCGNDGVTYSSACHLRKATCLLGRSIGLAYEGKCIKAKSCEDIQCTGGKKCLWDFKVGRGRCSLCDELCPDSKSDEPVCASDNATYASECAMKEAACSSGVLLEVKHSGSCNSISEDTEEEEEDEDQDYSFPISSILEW
# Assay Comment: follistatin binders on small-molecule microarrays, primary screen, biochemical, small-molecule microarray, 635/667 nm fluorescence (AID 1132)
# Cond: FST binding, 635 nm fluorescence, higher = more signal
Listed here: items and their measured composite z-score.
Lab note: record the figure alone, no unit after it.

These solved cases illustrate the format of a correct answer.
Compound: COC(=O)[C@@]1(Cc2ccc(OC)cc2)[C@H]2c3cc(C(=O)N4CCCC4)n(Cc4cc(F)cc5c4OCOC5)c3C[C@H]2CN1C(=O)c1ccccc1
composite z-score: 0.0448
--
Compound: COCCOC(=O)N1C(=O)[C@@]2(c3cc(C#CCCO)ccc31)[C@H](C(=O)NC[C@H](O)c1ccccc1)[C@H]1C(=O)O[C@H](c3ccccc3)[C@H](c3ccccc3)N1[C@@H]2c1ccc(O)cc1
composite z-score: 1.09

Hello, I am looking for reported composite z-score with Follistatin (Homo sapiens) (UniProt P19883) for COc1ccc(C(O)C2C=CC3C(=O)N(C)C(=O)C3N2Nc2ccccc2)cc1OCc1ccccc1 (stereo not drawn) . Could you help? 0.336

* * *

# System: XIP peptide (Xip251-270) binding
# Assay Comment: small-molecule binders of XIP peptide, primary screen, biochemical, small-molecule microarray, fluorescence 635/667 nm, 0.1 µg/mL protein (AID 1182)
# Cond: fluorescent protein binding, 635 nm, higher = more signal, called active from +8 up or from −8 down
Readout: composite z-score
Enter the number alone.

Worked examples follow.
Molecule: C=CCC(OC(C)=O)[C@@H]1[C@@H](N(Cc2cc3ccccc3o2)C(=O)c2ccc(C)cc2)c2cc(OCCCO)ccc2N1C(=O)c1ccc2ccccc2c1 (stereo partly specified)
Target Desc: XIP peptide (Xip251-270) binding
Readout: composite z-score
Numeric Readout: -0.014
//
Molecule: CC=CC(O)C1C=CC2C(=O)N(c3ccccc3)C(=O)C2N1Nc1ccc(C(C)C)cc1 (stereo unspecified)
Target Desc: XIP peptide (Xip251-270) binding
Readout: composite z-score
Numeric Readout: 0.213
//
Molecule: CCCCC=C[C@@H](NC(=O)c1ccc(C(=O)OC)cc1)c1ccccc1
Target Desc: XIP peptide (Xip251-270) binding
Readout: composite z-score
Numeric Readout: 2.97
//
Molecule: COC(=O)c1ccc(C(O)C2C=CC3C(=O)N(C)C(=O)C3N2NC(=O)OC(C)(C)C)o1 (stereo unspecified)
Target Desc: XIP peptide (Xip251-270) binding
Readout: composite z-score
Numeric Readout: 3.49
//
Molecule: COc1ccc(C(=O)Nc2cccc(CN3C(=O)[C@]4(O[C@H](CC(=O)N5CCC[C@H]5CO)[C@@H]([Si](C)(C)c5ccc(OC)cc5)[C@@H]4C)c4ccccc43)c2)cc1
Target Desc: XIP peptide (Xip251-270) binding
Readout: composite z-score
Numeric Readout: 1.64

Return reported composite z-score; argument: CCOC(=O)C1=C[C@@H](CC)N(S(=O)(=O)c2ccc(C)cc2)[C@H]1c1ccccc1 0.54

Record: COc1cc2c(cc1O)C(C)N(Cc1cccc(OC(F)(F)F)c1)CC2 (stereo unspecified) 0.714

Item: COCCOC(=O)N1C(=O)[C@@]2(c3ccccc31)[C@H](C(=O)NC[C@H](O)c1ccccc1)[C@H]1C(=O)O[C@H](c3ccccc3)[C@H](c3ccccc3)N1[C@@H]2c1ccc(OCCO)cc1 0.868
